Every entry's value here was drawn from patent US20260021061A1.

Test: Pharmacokinetic assessment, plasma and brain
Format: in vivo, male C57BL/6 mice
Conditions: male, C57BL/6, mouse, brain and plasma; SC 10 mg/kg; 0.083 hr; read-out: Brain/Plasma ratio
endpoint.name: Kp at 0.083 h
Output: the number by itself.

State the recorded Kp at 0.083 h for this entry: CCC(N)Cc1cc(OC)c(C(F)(F)F)cc1OC (racemic)
4.66

State the recorded Kp at 0.083 h for this entry: CCC(N)Cc1cc(OC)c(C)cc1OC (racemic)
2.43

---

Test: Pharmacokinetic assessment, plasma and brain
Format: in vivo, male C57BL/6 mice
Conditions: male, C57BL/6, mouse, brain and plasma; SC 10 mg/kg; 2 hr; read-out: Brain/Plasma ratio
endpoint.name: Kp at 2 h
Output: the number by itself.

CCC(N)Cc1cc(OC)c(C(F)(F)F)cc1OC (racemic) | 18.2

State the recorded Kp at 2 h for this entry: CCC(N)Cc1cc(OC)c(C)cc1OC (racemic)
9.93

---

Target: 5-HT1E receptor (Homo sapiens, UniProt P28566)
Sequence (P28566 whole entry): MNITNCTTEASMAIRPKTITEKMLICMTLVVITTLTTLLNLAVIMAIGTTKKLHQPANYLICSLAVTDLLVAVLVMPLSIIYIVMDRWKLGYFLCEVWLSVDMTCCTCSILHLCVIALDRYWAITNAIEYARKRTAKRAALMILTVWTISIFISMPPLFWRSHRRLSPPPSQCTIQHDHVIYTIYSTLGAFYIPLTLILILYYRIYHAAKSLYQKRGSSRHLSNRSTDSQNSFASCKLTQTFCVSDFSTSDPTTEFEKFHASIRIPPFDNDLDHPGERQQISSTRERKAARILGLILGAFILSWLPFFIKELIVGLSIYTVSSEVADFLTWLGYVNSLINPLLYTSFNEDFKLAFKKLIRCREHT
Test: 5-HTome G protein activation BRET assay
pEC50: −log10 of the molar value.
endpoint.name: pEC50

Look up pEC50 with 5-HT1E receptor (Homo sapiens, UniProt P28566) for this compound: CC[C@@H](N)Cc1cc(OC)c(C)cc1OC [(R)-Ariadne]
~6.70

---

Assay: Pharmacokinetic assessment, plasma and brain
Format: in vivo, male C57BL/6 mice
Conditions: male, C57BL/6, mouse; SC 10 mg/kg; brain; read-out: T1/2 (hr), brain (converted)
compounds and their reported half-life
Please answer using the number first and the unit second.

CCC(N)Cc1cc(OC)c(C(F)(F)F)cc1OC (racemic) | 1.79 h

# evaluate next
State the recorded half-life for this entry: CCC(N)Cc1cc(OC)c(C)cc1OC (racemic)
0.89 h

---

Biological target: 5-HT7a receptor (Homo sapiens, UniProt P34969)
Sequence (P34969 1-445 isoform P34969-2): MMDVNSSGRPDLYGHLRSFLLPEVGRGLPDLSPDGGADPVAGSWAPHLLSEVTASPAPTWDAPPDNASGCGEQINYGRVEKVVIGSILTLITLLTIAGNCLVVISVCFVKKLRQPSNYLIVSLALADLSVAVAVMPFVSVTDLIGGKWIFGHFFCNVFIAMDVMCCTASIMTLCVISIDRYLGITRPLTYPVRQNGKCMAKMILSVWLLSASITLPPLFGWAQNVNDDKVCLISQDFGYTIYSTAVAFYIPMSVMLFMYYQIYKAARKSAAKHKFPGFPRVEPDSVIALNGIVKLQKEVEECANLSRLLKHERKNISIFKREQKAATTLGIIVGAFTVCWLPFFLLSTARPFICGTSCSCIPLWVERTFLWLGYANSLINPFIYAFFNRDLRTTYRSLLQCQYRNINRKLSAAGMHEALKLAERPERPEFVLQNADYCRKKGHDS
Experiment: 5-HTome G protein activation BRET assay
endpoint.name: EC50

State the recorded EC50 for this entry: CCC(N)Cc1cc(OC)c(C)cc1OC (racemic)
> 10 µM

---

Assay: Pharmacokinetic assessment, plasma and brain
Format: in vivo, male C57BL/6 mice
Settings: male, C57BL/6, mouse; SC 10 mg/kg; plasma; read-out: Cmax (ng/mL), plasma
endpoint.name: Cmax (ng/mL)
# output: bare number, implied unit ng/mL

CCC(N)Cc1cc(OC)c(C)cc1OC (racemic) [Compound 32] | 802

# evaluate next
State the recorded Cmax for this entry: CCC(N)Cc1cc(OC)c(C(F)(F)F)cc1OC (racemic) [Compound 29]
467

---

compounds and their reported Tmax
Test: Pharmacokinetic assessment, plasma and brain
Format: in vivo, male C57BL/6 mice
Conditions: male, C57BL/6, mouse; SC 10 mg/kg; brain; read-out: Tmax (hr), brain
Description: PK assessments were performed at Sai Life (Telangana, India) according to the following general procedure. A total twenty-seven male C57BL/6 mice were used in this study with 3 mice per time point. Animals were administered subcutaneously at 10 mg/kg dose of test article. The formulation vehicle used was 0.9% normal saline. […] All samples were processed for analysis by protein precipitation method and analyzed with fit-for-purpose LC-MS/MS method (LLOQ=5.16 ng/mL for plasma and 2.06 ng/mL for brain).
Please answer using the number first and the unit second.

CCC(N)Cc1cc(OC)c(C(F)(F)F)cc1OC (racemic) | 0.25 h

# evaluate next
State the recorded Tmax for this entry: CCC(N)Cc1cc(OC)c(C)cc1OC (racemic)
0.5 h

---

Experiment: Pharmacokinetic assessment, plasma and brain
Type: in vivo, male C57BL/6 mice
Conditions: male, C57BL/6, mouse, brain and plasma; SC 10 mg/kg; 4 hr; read-out: Brain/Plasma ratio
Protocol: PK assessments were performed at Sai Life (Telangana, India) according to the following general procedure. A total twenty-seven male C57BL/6 mice were used in this study with 3 mice per time point. Animals were administered subcutaneously at 10 mg/kg dose of test article. The formulation vehicle used was 0.9% normal saline. […] All samples were processed for analysis by protein precipitation method and analyzed with fit-for-purpose LC-MS/MS method (LLOQ=5.16 ng/mL for plasma and 2.06 ng/mL for brain).
endpoint.name: Kp at 4 h
Output: the number by itself.

CCC(N)Cc1cc(OC)c(C)cc1OC (racemic) [Compound 32] | 9.01

# evaluate next
State the recorded Kp at 4 h for this entry: CCC(N)Cc1cc(OC)c(C(F)(F)F)cc1OC (racemic) [Compound 29]
15.2

---

Target: 5-HT2A (Homo sapiens, UniProt P28223)
Sequence (P28223 whole entry): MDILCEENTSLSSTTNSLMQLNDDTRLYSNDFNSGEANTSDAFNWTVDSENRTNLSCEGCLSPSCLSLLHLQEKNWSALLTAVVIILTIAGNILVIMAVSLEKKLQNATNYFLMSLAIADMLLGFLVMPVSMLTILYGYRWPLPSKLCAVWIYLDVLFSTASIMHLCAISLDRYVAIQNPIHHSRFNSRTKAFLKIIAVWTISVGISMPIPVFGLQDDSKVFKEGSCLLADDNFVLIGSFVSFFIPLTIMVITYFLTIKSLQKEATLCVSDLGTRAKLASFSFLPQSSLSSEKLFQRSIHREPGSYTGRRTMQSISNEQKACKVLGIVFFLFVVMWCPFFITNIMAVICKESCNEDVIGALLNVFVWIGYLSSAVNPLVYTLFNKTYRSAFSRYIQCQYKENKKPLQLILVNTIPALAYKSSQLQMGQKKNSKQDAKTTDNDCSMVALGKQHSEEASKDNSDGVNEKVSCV
Assay: IP1 agonism (IP1 formation assay), Cerep, Eurofins
Assay type: cell-based
Parameters: purchased Cerep, Eurofins (contract assay)
Conditions: Table 2; duplicate averages only; read-out: 5-HT2a (IP1 agonism)
endpoint.name: EC50
Please answer using the number first and the unit second.

State the recorded EC50 for this entry: COc1cc(CC(N)C2CC2)c(OC)cc1C (stereo not shown)
9.7 µM

---

Molecular target: 5-HT2B (Homo sapiens)
Sequence (P41595 whole entry): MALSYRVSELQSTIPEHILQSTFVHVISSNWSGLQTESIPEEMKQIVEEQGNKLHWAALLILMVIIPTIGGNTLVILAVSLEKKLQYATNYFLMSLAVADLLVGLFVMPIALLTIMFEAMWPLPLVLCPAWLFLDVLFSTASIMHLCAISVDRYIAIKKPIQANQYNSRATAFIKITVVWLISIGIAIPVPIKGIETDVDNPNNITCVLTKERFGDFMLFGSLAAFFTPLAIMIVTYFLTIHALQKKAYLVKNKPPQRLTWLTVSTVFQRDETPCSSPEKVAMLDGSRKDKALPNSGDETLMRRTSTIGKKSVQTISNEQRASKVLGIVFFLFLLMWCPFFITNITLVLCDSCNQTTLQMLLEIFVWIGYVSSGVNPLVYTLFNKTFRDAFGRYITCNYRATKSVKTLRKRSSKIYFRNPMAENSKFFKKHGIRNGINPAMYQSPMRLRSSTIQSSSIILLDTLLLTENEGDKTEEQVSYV
Assay: G protein (Gq) dissociation BRET assay
Conditions: EC50, Gq dissociation, Gq dissociation BRET
endpoint.name: pEC50
Would you please state pEC50, meaning minus log10 of the concentration in mol/L, as a bare number?

State the recorded pEC50 for this entry: CC[C@@H](N)Cc1cc(OC)c(C)cc1OC [(R)-Ariadne]
6.13

---

Test: Pharmacokinetic assessment, plasma and brain
Type: in vivo, male C57BL/6 mice
Details: male, C57BL/6, mouse; SC 10 mg/kg; brain; read-out: Cmax (ng/g), brain
molecules and their reported Cmax
Please answer using the number first and the unit second.

CCC(N)Cc1cc(OC)c(C(F)(F)F)cc1OC (racemic) | 4160 ng/g

# evaluate next
State the recorded Cmax for this entry: CCC(N)Cc1cc(OC)c(C)cc1OC (racemic)
5610 ng/g

---

Biological target: UniProt:P41595
Assay: IP1 agonism (IP1 formation assay), Cerep, Eurofins
Format: cell-based
Set-up: purchased Cerep, Eurofins (contract assay)
Conditions: 5-HT2b (IP1 agonism), Table 2; duplicate averages only
compounds and their reported pEC50
Would you please state pEC50, meaning minus log10 of the concentration in mol/L, as a bare number?

CCC(N)Cc1cc(OC)c(Br)cc1OC (centres unmarked) | 5.26
CCOc1cc(CC(N)CC)c(OC)cc1C(F)(F)F (centres unmarked) | 6.02
CCc1cc(OC)c(CC(N)CC)cc1OC (centres unmarked) | 6.24

Look up pEC50 with UniProt:P41595 for this compound: CCCC(N)Cc1cc(OC)c(C)cc1OC (centres unmarked)
4.64

Look up pEC50 with UniProt:P41595 for this compound: CCC(N)Cc1cc(OC)c(SC)cc1OC (centres unmarked)
7.18

Look up pEC50 with UniProt:P41595 for this compound: CCC(N)Cc1cc(OC)c(I)cc1OC (centres unmarked)
4.74

---

compounds and their reported Kp at 1 h
Test: Pharmacokinetic assessment, plasma and brain
Format: in vivo, male C57BL/6 mice
Settings: male, C57BL/6, mouse, brain and plasma; SC 10 mg/kg; 1 hr; read-out: Brain/Plasma ratio
Output: the number by itself.

CCC(N)Cc1cc(OC)c(C(F)(F)F)cc1OC (racemic) | 18.1

State the recorded Kp at 1 h for this entry: CCC(N)Cc1cc(OC)c(C)cc1OC (racemic)
10.2

---

Test: Pharmacokinetic assessment, plasma and brain
Type: in vivo, male C57BL/6 mice
Conditions: male, C57BL/6, mouse, brain; SC 10 mg/kg; 0.25 hr; read-out: Mean brain Concentration
endpoint.name: concentration at 0.25 hr (ng/g)
# output: bare number, implied unit ng/g

CCC(N)Cc1cc(OC)c(C(F)(F)F)cc1OC (racemic) | 4160

# evaluate next
State the recorded concentration at 0.25 hr for this entry: CCC(N)Cc1cc(OC)c(C)cc1OC (racemic)
4760

---

Molecular target: hDAT (Homo sapiens, UniProt Q01959)
Sequence (Q01959 whole entry): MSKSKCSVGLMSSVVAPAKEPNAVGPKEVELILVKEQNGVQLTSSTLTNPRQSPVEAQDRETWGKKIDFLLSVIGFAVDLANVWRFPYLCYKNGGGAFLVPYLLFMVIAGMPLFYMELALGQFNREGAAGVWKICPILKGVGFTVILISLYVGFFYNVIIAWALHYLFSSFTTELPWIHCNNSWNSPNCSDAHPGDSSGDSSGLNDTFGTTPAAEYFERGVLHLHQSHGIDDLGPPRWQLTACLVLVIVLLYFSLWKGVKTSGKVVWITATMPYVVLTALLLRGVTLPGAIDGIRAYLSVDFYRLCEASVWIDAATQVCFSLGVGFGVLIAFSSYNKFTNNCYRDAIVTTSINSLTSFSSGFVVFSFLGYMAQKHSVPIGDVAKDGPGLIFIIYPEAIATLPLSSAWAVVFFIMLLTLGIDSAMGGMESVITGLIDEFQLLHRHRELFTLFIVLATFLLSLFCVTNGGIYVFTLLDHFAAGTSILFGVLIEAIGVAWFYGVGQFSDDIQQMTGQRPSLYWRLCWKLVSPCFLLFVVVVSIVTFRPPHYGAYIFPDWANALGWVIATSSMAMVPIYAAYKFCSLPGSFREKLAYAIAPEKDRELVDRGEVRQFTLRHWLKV
Experiment: DAT fluorescence uptake inhibition
endpoint.name: IC50

State the recorded IC50 for this entry: CCC(N)Cc1cc(OC)c(C)cc1OC (racemic)
> 50 µM

---

Test: Pharmacokinetic assessment, plasma and brain
Assay type: in vivo, male C57BL/6 mice
Details: male, C57BL/6, mouse, brain and plasma; SC 10 mg/kg; 0.5 hr; read-out: Brain/Plasma ratio
Protocol: PK assessments were performed at Sai Life (Telangana, India) according to the following general procedure. A total twenty-seven male C57BL/6 mice were used in this study with 3 mice per time point. Animals were administered subcutaneously at 10 mg/kg dose of test article. The formulation vehicle used was 0.9% normal saline. […] All samples were processed for analysis by protein precipitation method and analyzed with fit-for-purpose LC-MS/MS method (LLOQ=5.16 ng/mL for plasma and 2.06 ng/mL for brain).
endpoint.name: Kp at 0.5 h
Output: the number by itself.

CCC(N)Cc1cc(OC)c(C(F)(F)F)cc1OC (racemic) [Compound 29] | 8.93

State the recorded Kp at 0.5 h for this entry: CCC(N)Cc1cc(OC)c(C)cc1OC (racemic) [Compound 32]
8.47
